- study.system: glucagon receptor (GCGR) overexpressed CHO-K1 cells or human primary hepatocytes (Homo sapiens)
- Construct: expressed in transfected cells; host or cells: GCGR overexpressed CHO-K1 cells or human primary hepatocytes (endogenous receptor)
- experiment.notes: Glucagon cAMP inhibition assay (Cisbio cAMP Dynamic 2 HTRF)
- Type: cell-based
- conditions: inhibition of glucagon (EC50 concentration) induced cAMP production
parameter.measured: IC50 cAMP (µM)
Write the number in µM without appending the unit.

The cases that follow already have their IC50 cAMP on record.
>>> meas_value("CC(C)[C@H](COc1ccc(-c2cc3ccccc3o2)cc1)Nc1ccc(C(=O)NCCC(=O)O)cc1")
0.2387
>>> meas_value("CCCC[C@@H](COc1ccc(-c2nnc(C(F)(F)F)o2)c(F)c1)Nc1ccc(C(=O)NCCC(=O)O)cc1")
2.701
>>> meas_value("CCC(C)[C@@H](COc1ccc(-c2nnc(C(F)(F)F)o2)cc1)Nc1ccc(C(=O)NCCC(=O)O)cc1 (stereo partly drawn)")
10
>>> meas_value("CC(C)[C@@H](COc1ccc(-c2cc3ccccc3o2)c(Cl)c1)Nc1ccc(C(=O)NCCC(=O)O)cc1")
0.3635
>>> meas_value("CC[C@H](C)[C@@H](COc1ccc(-c2cc3ccccc3o2)c(Cl)c1)Nc1ccc(C(=O)NCc2nnn[nH]2)cc1")
1.822
>>> meas_value("CC(C)[C@@H](COc1ccc(-c2cc3ccccc3o2)cn1)Nc1ccc(C(=O)NCCC(=O)O)cn1")
0.2393

Exercise: Recorded IC50 cAMP of `CC(C)[C@@H](COc1ccc(-c2ccc(C(F)(F)F)cc2Cl)cc1)Nc1ccc(C(=O)NCCC(=O)O)cc1` , please.
Solution: 0.0142

* * *

- study.system: glucagon receptor (GCGR) (Homo sapiens, UniProt P47871)
- Construct: expressed in transfected cells; host or cells: CHO-K1 cells overexpressing GCGR (membrane fractions)
- experiment.notes: I125-glucagon binding assay (competition, GCGR membrane fractions)
parameter.measured: IC50

The cases that follow already have their IC50 on record.
>>> meas_value("CCC(C)[C@@H](COc1nnc(-c2ccc(C(C)(C)C)cc2)o1)Nc1ccc(C(=O)NCCC(=O)O)cc1 (stereo partly drawn)")
"> 30 µM"
>>> meas_value("CCCC[C@@H](COc1nnc(-c2ccc(C(F)(F)F)cc2)o1)Nc1ccc(C(=O)NCCC(=O)O)cc1")
"> 30 µM"

Consider the additional compound presented here.
Exercise: Recorded IC50 of `CC[C@H](C)[C@@H](COc1nnc(-c2ccc(Cl)cc2Cl)o1)Nc1ccc(C(=O)NCCC(=O)O)cc1` , please.
Solution: > 30 µM

* * *

- study.system: glucagon receptor (GCGR) overexpressed CHO-K1 cells or human primary hepatocytes (Homo sapiens, UniProt P47871)
- Construct: expressed in transfected cells; host or cells: GCGR overexpressed CHO-K1 cells or human primary hepatocytes (endogenous receptor)
- Sequence (P47871 26-477): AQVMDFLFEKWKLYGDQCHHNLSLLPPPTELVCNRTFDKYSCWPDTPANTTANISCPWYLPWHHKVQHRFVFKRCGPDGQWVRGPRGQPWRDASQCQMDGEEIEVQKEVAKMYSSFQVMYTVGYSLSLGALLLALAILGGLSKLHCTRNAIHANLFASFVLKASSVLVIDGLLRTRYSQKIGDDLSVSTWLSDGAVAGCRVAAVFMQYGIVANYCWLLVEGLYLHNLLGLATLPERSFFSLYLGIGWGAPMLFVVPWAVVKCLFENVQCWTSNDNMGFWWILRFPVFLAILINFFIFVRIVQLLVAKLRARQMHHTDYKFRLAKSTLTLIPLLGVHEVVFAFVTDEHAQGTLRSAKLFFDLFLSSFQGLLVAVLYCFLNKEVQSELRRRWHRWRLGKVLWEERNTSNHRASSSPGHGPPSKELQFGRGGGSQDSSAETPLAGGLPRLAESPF
- experiment.notes: Glucagon cAMP inhibition assay (Cisbio cAMP Dynamic 2 HTRF)
- Format: cell-based
- conditions: inhibition of glucagon (EC50 concentration) induced cAMP production
Binary label based on IC50 cAMP with cut-off 400 nM: below gives MET, not below gives NOT MET.

>>> label_value("CC[C@H](C)[C@@H](COc1ccc(-c2ccc(C(F)(F)F)cc2)c(F)c1)Nc1ccc(C(=O)NCCC(=O)O)cc1 [Compound 8-14]")
"MET"
>>> label_value("CC[C@H](C)[C@@H](CSc1ccc(-c2cc3ccccc3o2)cc1)Nc1ccc(C(=O)NCCC(=O)O)cc1 [Compound 5-3]")
"NOT MET"
>>> label_value("CCOC(=O)CCNC(=O)c1ccc(N[C@H](COc2ccc(-c3cc4ccccc4o3)cc2)C(C)C)cc1 [Compound 1-1]")
"NOT MET"

Exercise: Hello, I'm reviewing records and need to know if IC50 cAMP of CCCC[C@@H](COc1ccc(-c2ccc(C(F)(F)F)cc2F)c(OC)c1)Nc1ccc(C(=O)NCCC(=O)O)cn1 [Compound 14-2] is below 400 nM. Could you check?
Solution: NOT MET

Exercise: Hello, I'm reviewing records and need to know if IC50 cAMP of CC(C)[C@@H](COc1ccc(-c2cc3ccccc3o2)nc1)Nc1ccc(C(=O)NCCC(=O)O)cn1 [Compound 11-2] is below 400 nM. Could you check?
Solution: NOT MET

Exercise: Hello, I'm reviewing records and need to know if IC50 cAMP of CC[C@H](C)[C@@H](COc1cc(Cl)c(-c2cc3ccccc3o2)cc1Cl)Nc1ccc(C(=O)NCCC(=O)O)cc1 [Compound 3-19] is below 400 nM. Could you check?
Solution: MET
